meta.source: patent US20250215104A1

Experimental system: T1, human soluble urokinase plasminogen activator receptor (suPAR) (human, UniProt Q03405 23-303, limits assumed)
T1 construct: Column head says only 'human'; also called human suPAR; hsuPAR
T1 sequence (Q03405 23-303 limits assumed): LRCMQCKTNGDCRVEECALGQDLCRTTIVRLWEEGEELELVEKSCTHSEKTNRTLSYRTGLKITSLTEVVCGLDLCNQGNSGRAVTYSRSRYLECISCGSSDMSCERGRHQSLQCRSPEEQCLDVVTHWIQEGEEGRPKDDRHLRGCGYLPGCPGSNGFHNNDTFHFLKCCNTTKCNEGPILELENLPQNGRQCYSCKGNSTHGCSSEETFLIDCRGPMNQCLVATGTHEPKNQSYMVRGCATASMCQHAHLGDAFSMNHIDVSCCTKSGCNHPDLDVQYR
Method summary: BLI (Octet) off-rate screen of scFv clones
Some binders, each annotated with its measured koff.

Binder: suPAR_DB02_H01 (scFv, V domains shown, scFv clone from phage display) VH: QVQLVQSGAEVKKPGASVKVSCKASGYTFTGQYIHWVRQAPGQGLEWMGWIDHSGGSTIYDQKFQGRVTMTRDTSTSTVYMELSSLRSEDTAVYYCAGGYDVDWFVYWGQGTLVTVSS VL: DIQMTQSPSSLSASVGDRVTITCSARSSVSYMYWYQQKPGKAPKLLIYRTSSLASGVPSRFSGSGSGTDFTLTISSLQPEDFATYYCQQYHSYPPTFGGGTKVEIK
koff / s⁻¹: 0.00315
--
Binder: suPAR_DB02_G07 (scFv, V domains shown, scFv clone from phage display) VH: QVQLVQSGAEVKKPGASVKVSCKASGYTFTSYYMHWVRQAPGQGLEWMGWIDPENGSTIYDQKFQGRVTMTRDTSTSTVYMELSSLRSEDTAVYYCARGYDVDWFVYWGQGTLVTVSS VL: DIQMTQSPSSLSASVGDRVTITCSASQSVSYMYWYQQKPGKAPKLLIYRTSNLASGVPSRFSGSGSGTDFTLTISSLQPEDFATYYCQQYHSYPPTFGGGTKVEIK
koff / s⁻¹: 0.00367
--
Binder: suPAR_DB02_F12 (scFv, V domains shown, scFv clone from phage display) VH: QVQLVQSGAEVKKPGASVKVSCKASGDMFTGYYLHWVRQAPGQGLEWMGWIDHENGNTIYDQKFQGRVTMTRDTSTSTVYMELSSLRSEDTAVYYCARGYDVDWFVYWGQGTLVTVSS VL: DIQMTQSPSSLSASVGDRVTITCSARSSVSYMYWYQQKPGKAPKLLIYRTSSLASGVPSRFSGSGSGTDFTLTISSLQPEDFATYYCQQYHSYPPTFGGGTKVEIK
koff / s⁻¹: 0.00494
--
Binder: suPAR_DB02_G04 (scFv, V domains shown, scFv clone from phage display) VH: QVQLVQSGAEVKKPGASVKVSCKASGHTFTGYYIHWVRQAPGQGLEWMGWIDHENGNTIYDQKFQGRVTMTRDTSTSTVYMELSSLRSEDTAVYYCARGYDVDWFVYWGQGTLVTVSS VL: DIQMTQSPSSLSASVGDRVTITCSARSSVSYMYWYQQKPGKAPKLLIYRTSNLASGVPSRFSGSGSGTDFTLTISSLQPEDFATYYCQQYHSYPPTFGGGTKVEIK
koff / s⁻¹: 0.00448
--
Binder: suPAR_DB02_F03 (scFv, V domains shown, scFv clone from phage display) VH: QVQLVQSGAEVKKPGASVKVSCKASGYTFTSYYVHWVRQAPGQGLEWMGWIDPEGGSTIYDQKFQGRVTMTRDTSTSTVYMELSSLRSEDTAVYYCARGYDVDWFVYWGQGTLVTVSS VL: DIQMTQSPSSLSASVGDRVTITCSARSSVSYMYWYQQKPGKAPKLLIYRTSSLQSGVPSRFSGSGSGTDFTLTISSLQPEDFATYYCQQYHSYPPTFGGGTKVEIK
koff / s⁻¹: 0.00504
